Data provenance: PubChem BioAssay AID361

Test system: pyruvate kinase (Bacillus stearothermophilus)
Measurement notes: Pyruvate Kinase; note: potency is the fitted concentration of half-maximal effect
Experimental setup: purified pyruvate kinase, luminescence ATP production; ribose 5-phosphate activator present at AC10
Method: Pyruvate kinase (partially purified from Bacillus stearothermophilus) was assayed for its ability to generate ATP from ADP using phosphoenolpyruvate (PEP) as a substrate. ATP generation was detected in a coupled reaction by luciferase-mediated luminescence, an ATP-dependent process. Pyruvate kinase substrates, PEP and ADP, were present in the assay at Km and […]-fold below Km respectively. The enzyme was assayed at an intermediate level of activity to screen for inhibitors and activators. […]
Screen size: about 51,000 compounds; about 600 (1.2%) were called active. Not shown: some 2% with an inconclusive outcome. Cut-off read from the data, not from the text of the source: active = potency below about 11 µM; inconclusive = mostly about 12 µM to 25 µM; inactive = weaker than that;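 the screen sought inhibitors and activators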. The list comes from a sample in which actives are over-represented; it also holds close analogues and randomly drawn compounds.
Outcomes: active, inactive

Compound: N#Cc1nc(Cc2ccccc2)oc1NCCc1ccccc1
Category label: inactive
//
Compound: O=C(c1cccc2ccccc12)N1CCN(c2ccccc2F)CC1
Category label: inactive
//
Compound: COc1ccccc1NC(=O)C1=C(C)NC2=C(C(=O)CCC2)C1c1ccc(C)o1 (stereo not given)
Category label: inactive
//
Compound: CCN(CC)S(=O)(=O)c1cccc(C(=O)NCC(=O)OCC(=O)NCc2ccccc2)c1
Category label: inactive
//
Compound: COc1ccc(CNC(=O)c2c(C)cc(=O)oc2C)cc1OC
Category label: inactive
//
Compound: Cc1ccc2nc(-c3ccc(SCC(=O)Nc4cc(C)on4)nc3)[nH]c2c1
Category label: active
//
Compound: CCOC(=O)c1sc2nc(CSCC(=O)OCc3ccc(C(=O)OC)o3)[nH]c(=O)c2c1C
Category label: inactive
//
Compound: COc1ccc2oc(C)c(NC(C)=O)c2c1
Category label: inactive
//
Compound: Cc1cc(C)c2c(n1)nn1c(N3CCOCC3)cc(C)nc21
Category label: inactive
//
Compound: CCCc1nnc(NC(=O)c2cc(OC)cc(OC)c2)s1
Category label: inactive
//
Compound: Cc1ccc(-c2c3c(=O)n(C)c(=O)n(C)c3cn2-c2ccccc2O)cc1
Category label: inactive
//
Compound: COc1ccc(OC)c2c(N)c(C#N)c(C(F)(F)C(F)(F)F)nc12
Category label: inactive
//
Compound: N#Cc1ccc(OCCN2C(=O)NC3(CCSC3)C2=O)cc1 (stereo not given)
Category label: inactive
//
Compound: COc1ccc2nc(NC(=O)c3ccc(Br)s3)sc2c1
Category label: inactive
//
Compound: COc1ccc(-c2cn3ccsc3n2)cc1
Category label: active
//
Compound: O=C1CC(Cc2ccccc2)C(=O)N1c1ccc(Cl)cn1 (stereo not given)
Category label: inactive
//
Compound: CCC(=O)Nc1ccc(C(=O)Nc2ccc3c(c2)C(=O)N(CC2CCCO2)C3=O)cc1 (stereo not given)
Category label: inactive
//
Compound: COc1ccc(OC)c(NC(=O)CN2CCN(C(=O)c3ccco3)CC2)c1
Category label: inactive
//
Compound: Cc1cc(C)nc(N2CCN(c3ncnc4c3oc3ccccc34)CC2)n1
Category label: inactive
//
Compound: CCN(CC)C(=O)CSc1nnc(-c2ccc(S(=O)(=O)NCc3ccccc3Cl)cc2)o1
Category label: inactive
//
Compound: O=S(=O)(N1CCOCC1)N1CCN(c2ccccc2F)CC1
Category label: inactive
//
Compound: Cn1c(C(=O)NCCN2CCc3ccccc3C2)cc2c(=O)[nH]c3ccccc3c21
Category label: active
//
Compound: CCOC(=O)C1CCN(c2ncnc3c2oc2ccc(Br)cc23)CC1
Category label: active
//
Compound: Cc1ncc(CC(=O)n2cc(C(=O)c3cc(Cl)ccc3O)cn2)s1
Category label: inactive
//
Compound: N#Cc1nc(-c2ccc(OCc3ccccc3)cc2)oc1NCCCN1CCOCC1
Category label: active
//
Compound: N#CC1=C(N)C(C#N)(C#N)[C@H](c2ccsc2)[C@H]2COCC=C12
Category label: inactive
//
Compound: N#Cc1nc(COc2ccc(-c3ccccc3)cc2)oc1NCc1cccnc1
Category label: inactive
//
Compound: O=C(CN1C(=O)COc2ccccc21)NCCN1CCc2ccccc2C1
Category label: inactive
//
Compound: c1c2c(cc3sc(N4CCCCC4)nc13)OCCO2
Category label: active
//
Compound: COc1ccc(CC(=O)n2nc(-c3cccnc3)nc2N)cc1
Category label: inactive
//
Compound: COC(=O)c1sc(NC(=O)c2ccc(OC)cc2OC)nc1C
Category label: active
//
Compound: CCOC(=O)N1CCC(NC(=O)c2ccc3nc(N4CCOCC4)sc3c2)CC1
Category label: inactive
//
Compound: COc1cccc(N2CC(C(=O)Nc3c(C)cccc3C)CC2=O)c1 (stereo not given)
Category label: inactive
//
Compound: OCCCN1c2ccccc2Nc2nnc(-c3ccccc3)cc21
Category label: active
//
Compound: Cc1cccc(N2CCN(C(=O)c3cc4c(=O)[nH]c5ccccc5c4n3C)CC2)c1C
Category label: inactive
//
Compound: Cc1ccc(NC(=O)CS(=O)CC(=O)N(c2ccccc2)C(C)C(=O)NC2CCCC2)cc1 (stereo not given)
Category label: inactive
//
Compound: Cc1nn2c3cc(N4CCOCC4)ccc3nc2c2ccccc12
Category label: active
//
Compound: COCCCNC(=O)CSc1nc2ccc(N3CCOCC3)cc2c(=O)n1CCc1ccccc1
Category label: inactive
//
Compound: NC(=O)COc1ccc2c3c(c(=O)oc2c1)CCCCC3
Category label: inactive
//
Compound: Cc1cc(C)c2c(c1)cc(C)c1nnc(SCC(=O)Nc3cc(C)on3)n12
Category label: inactive
//
Compound: COC(=O)C(CC(=O)Nc1cc(C)ccc1C)Nc1ccccc1OC (stereo not given)
Category label: inactive
//
Compound: CCCC(=O)Nc1cccc(-c2cn3ccsc3n2)c1
Category label: inactive
//
Compound: C=CCn1c(=S)[nH]c2nc3c(cc2c1=O)COC(C)(C)C3
Category label: inactive
//
Compound: c1ccc(-c2oc3ncnc(N4CCOCC4)c3c2-c2ccccc2)cc1
Category label: inactive
//
Compound: Cc1nc(SCC(=O)Nc2cc(C)on2)c2c(C)c(C)sc2n1
Category label: inactive
